Measured values drawn from the nanobody polyreactivity screen of Harvey et al. (2022) for this set.

assay info: yeast display, Sf9 membrane polyspecificity reagent, FACS + sequencing; frameworks hold sequencing errors
readout label: polyreactivity (PSR sort gate)

monomer sequence	polyreactivity (PSR sort gate)
QVQLVESGGGLVQAGGSLRLSCAASGSIFGTYAMGWYRQAPGKERELVAAISWSDGSTYYADSVKGRFTISRDNAKNTVYLQMNSLKPEDTAVYYCAKVYRSIGPNVSRYGLSYYYWGQGSQVTVSS	low polyreactivity
QVQLVESGGGLVQAGGSLRLSCAASGITFAYNAMGWYRQAPGKERELVATISIGGNTNYADSVKGRFTISRDNAKNTVYLQMNSLKPEDTAVYYCNADFPHEGGFCYWGQGTQVTVSS	low polyreactivity
QFQLLESGGGLVQAGSSLRLSCAASGSTFKYYTMGWYRQAPGKERELVATIRGAGTTYADSVKGRFTISRDNAKHTVYLQMNSLKPEDTAVYYCARLPRGDMDYWGQGTQVTVSS	low polyreactivity
QVQLVESGGCLVQAGGSLRLSCAASGIIFGRYTMGWYRQAPGKERELVAAITSSGITYYADSVKGRVTISRDNAKNTVYLQMNSLKPEDTAVYYCNADYSSPGYYWPYDYWGQGTQVSVSS	low polyreactivity
QVQLVESGGGLVQAGGSLRLSCAASGRTFSVNAMGWYREAPGKEREFVAGISYSGNTYYADSVKGRVTISRDNAKKTAYLQMNSLKPEDTAVYYCAARRGYNDGYWGQGTQVTVSS	high polyreactivity
QVQLVESGGGLVQAGGSLRLSCAASGFTFIRYAMGWYRQAPGKERELVASISNRGGRTYYADSVKGRFTISRDNAKNTVYLQMNSLKPEDTAVYYCAAGYSYAQYSYPFLSFAFGYWGQGTQVTVSS	high polyreactivity
QVQLVESGGGLDQAGGSLRLSCAASGNIFRIYAMGWYRQAPGKERELVATITKRGGSTYYADSVKGRFTISRDNAKNTVYLQMNSLKPEDTAVNYCNAVTKLWYDYDYWGQGTQGTVSS	high polyreactivity
QVQLVESGGGLVQAGGSLRLSCAASGRIYVTNAMGWYRQAPGKERELVASISSGGRTHYADSVKGRFTISRDNAKNTVYLQMNSLKPEDTAVYYCAKPPLYYYPDLRGEEFYYWGQGTQVTVSS	low polyreactivity

Look at each sequence and report its polyreactivity (PSR sort gate).
1. QVQLEESGGGLVQAGGSHRLSCPASGRIFRANAMGWYRQAPGKERELLAAITRSGGSTYYADSVKGRFTISRDNAKNTVYLHMISLKPEDTAVYYWNARTRFDDGYDYWGQGTQVTVSS
2. QVQLVESGGGLVQAGGSLRLSCAASGRTFPLNAMGWYRQAPGKERELVARISSNGGSTYYADSMKGRFTISRDNAKNTVYLQMNSLKPEDTAVYYCAARYYSRRGLYYWGQGTQVTVSS

high polyreactivity
high polyreactivity

Give reported polyreactivity (PSR sort gate) value for QVQLVESGRGLFQSGGSLRLSCAASGRTFVPYAMGWYRQAPGKESELVAAISYSGDSTYYADSVKGRFTISRDNAKNTVYLQMKSLIPEDTAVYYCAKRGPVRNTAYDYWGQGTQVTVSS
low polyreactivity

* * *

assay info: yeast display, Sf9 membrane polyspecificity reagent, FACS + sequencing; frameworks hold sequencing errors

monomer sequence	polyreactivity (PSR sort gate)
QVQLVESGGGLVQAGGSLRLSCAASGRTLRYYAMGWYRQAPGKERELVASISIGGSTFYADSVKGRFTISRDNAKNTVYLQMNSLKPEDTAVYYCAAENFWQTKEYDYWGQGTQVTVSS	low polyreactivity
QVQLVESGGGLVQAGGSLRLSCAASGITFPGNAMGWYRQAPGKERDLVAVISSGTSTNYADSVKGRFTISRDNAKNTVYLHMNSLKPEDTAVYYCAKATSSFYHYRYDYWGQGTQVTVSS	low polyreactivity
